# test-method-notes: gradient 5% acetonitrile 3 min, to 50% in 2 min, to 85% in 15 min, held 3 min, 100 µL/min
# assay-conditions: column: Zorbax Extend-C18 2.1 x 50 mm; eluents: water / acetonitrile, 0.1% formic acid
# cutoff 800 s applies to RP-LC retention time; >= gives Yes, < gives No

As a guide, the following entries are already answered.
1. CCOC(=O)c1cc(-c2cccc(OC)c2OC)no1 = Yes
2. CC(C)Cn1c(=O)c2cc(C(=O)NCCCn3cccn3)nn2c2ccccc21 = Yes
3. Cn1c(N2CCCN(C(=O)c3ccc(F)c(F)c3)CC2)cc(=O)n(C)c1=O = No
4. Cc1ccc(S(=O)(=O)N2CCCC(c3nc(-c4cccc(-c5ccnn5C)c4)no3)C2)cc1 (centres undefined) = Yes
5. O=c1c2cc3c(cc2nc(SCc2nc(-c4ccc(F)cc4)no2)n1Cc1ccccc1)OCO3 = Yes
6. c1cncc(-c2nc(-c3ccc(OC4CNC4)cc3)no2)c1 = No

q: Tell me whether RP-LC retention time is at least 800 s here: CN1c2cc(C(=O)N3CCN(C4CCCCC4)CC3)ccc2C(=O)N2CCCCC21 (centres undefined)
a: No

====

# test-method-notes: gradient 5% acetonitrile 3 min, to 50% in 2 min, to 85% in 15 min, held 3 min, 100 µL/min
# assay-conditions: column: Zorbax Extend-C18 2.1 x 50 mm; eluents: water / acetonitrile, 0.1% formic acid
measure: RP-LC retention time (s)
Numeric only. Scale: s

1) COc1ccc(C(=O)N2CCC(COc3ccc(C(=O)NC(C)C)cc3)CC2)c(C)c1 = 851
2) Cc1cc(-c2nnc(-c3ccc(F)cc3)o2)c(C)n1CC(=O)NCc1cccnc1 = 637
3) COc1ccc(Cl)cc1N(C)C(=O)C(=O)Nc1ccc2nc3n(c(=O)c2c1)CCCCC3 = 822

q: Fill blank: measured RP-LC retention time of the compound Cc1ccc(Nc2c(-c3ccccc3)nc3cnccn23)c(C)c1 is ____.
a: 982

q: Fill blank: measured RP-LC retention time of the compound CCOC(=O)c1cn[nH]c1S(=O)(=O)Nc1ccc2c(c1)OCCO2 is ____.
a: 683

q: Fill blank: measured RP-LC retention time of the compound C=C1C[C@H]2[C@@H]3CCC4=CC(=O)CC[C@@H]4[C@H]3CC[C@]2(C)[C@@]1(OC(C)=O)C(C)=O is ____.
a: 1160

q: Fill blank: measured RP-LC retention time of the compound CCC(C)NC(=O)N1CCCN(C2=NS(=O)(=O)C(c3ccc(Cl)cc3)=C2C)CC1 (centres undefined) is ____.
a: 825

q: Fill blank: measured RP-LC retention time of the compound Cc1ccc(NC(=O)N2CCc3nc(-c4ccc(Cl)cc4)ncc3C2)cc1 is ____.
a: 783

q: Fill blank: measured RP-LC retention time of the compound Cc1ccc2c(=O)c(C(=O)N3CCCCC3)cn(CC(=O)Nc3ccccc3)c2n1 is ____.
a: 713

====

Measured RP-LC retention time, listed per entry for reference.
# test-method-notes: gradient 5% acetonitrile 3 min, to 50% in 2 min, to 85% in 15 min, held 3 min, 100 µL/min
# assay-conditions: column: Zorbax Extend-C18 2.1 x 50 mm; eluents: water / acetonitrile, 0.1% formic acid
Numeric only. Scale: s

1) CC(=O)c1cccc(NC(=O)Cn2cccc2-c2nc(-c3ccccc3)no2)c1 = 988
2) Cc1csc(-c2ccc(N3CCN(C(=O)c4ccoc4)CC3)nc2)n1 = 716
3) CCOc1ccc(NS(=O)(=O)c2cc3c4c(c2)CCC(=O)N4CCC3)cc1 = 818
4) Cc1nnc(N2CCCC(C(=O)NCCC3=CCCCC3)C2)c2nn(-c3ccc(Cl)cc3)c(C)c12 (centres undefined) = 861
5) COCc1nc(C2CCN(C(=O)C3CC3)C2)no1 (centres undefined) = 626

q: Fill blank: measured RP-LC retention time of the compound Cc1cccc(CCNC(=O)Cc2csc3nc(-c4ccccc4)cn23)c1 is ____.
a: 810

q: Fill blank: measured RP-LC retention time of the compound CNC(=O)C1CCCN(c2nc3ncn(CC(=O)Nc4ccc(F)cc4F)c(=O)c3s2)C1 (centres undefined) is ____.
a: 635

q: Fill blank: measured RP-LC retention time of the compound COc1cccc(C2Nc3ccccc3NC3=C2C(=O)CC(C)(C)C3)c1O (centres undefined) is ____.
a: 686

q: Fill blank: measured RP-LC retention time of the compound CC(=O)Nc1ccc(CC(=O)NC(C(=O)N2CCCc3ccccc32)c2ccccc2)cc1 (centres undefined) is ____.
a: 803

q: Fill blank: measured RP-LC retention time of the compound CN1C(=O)c2ccccc2Oc2ccc(C(=O)NCc3cccs3)cc21 is ____.
a: 847

q: Fill blank: measured RP-LC retention time of the compound COC(=O)c1sccc1NC(=O)N1CCCC1c1nc(-c2cccc(Cl)c2)no1 (centres undefined) is ____.
a: 1220

q: Fill blank: measured RP-LC retention time of the compound O=C(NCCc1csc(-c2ccccc2)n1)C1CCN(S(=O)(=O)c2cccc(F)c2)CC1 is ____.
a: 922

q: Fill blank: measured RP-LC retention time of the compound COc1cccc(S(=O)(=O)N2[C@H]3CC[C@@H]2c2cnc(C)nc2C3)c1 is ____.
a: 692

q: Fill blank: measured RP-LC retention time of the compound Cc1ccc(Nc2c(-c3ccccc3O)nc3ccc(C)cn23)cc1 is ____.
a: 774

q: Fill blank: measured RP-LC retention time of the compound COc1ccc(NC(=O)N(Cc2nnc3n2CCCCC3)c2ccc(OC)cc2)cc1 is ____.
a: 631

====

# test-method-notes: gradient 5% acetonitrile 3 min, to 50% in 2 min, to 85% in 15 min, held 3 min, 100 µL/min
# assay-conditions: column: Zorbax Extend-C18 2.1 x 50 mm; eluents: water / acetonitrile, 0.1% formic acid
# cutoff 800 s applies to RP-LC retention time; >= gives MET, < gives NOT MET

1. O=C(Cc1ccc(Cl)cc1)Nc1nnc(SCc2nnc(-c3ccccc3)o2)s1 = MET
2. CCN1C(=O)c2cccnc2Sc2cc(CNC(=O)Cc3cccc(F)c3)ccc21 = NOT MET
3. CCc1nn(CC(=O)N2CCC(C(N)=O)CC2)c(=O)c2cc3sccc3n12 = NOT MET
4. CC1CCN(S(=O)(=O)c2nn(C)cc2C(=O)NCc2cc(F)cc(F)c2)CC1 = MET
5. CCOC(=O)c1[nH]c(C)c(CCC(=O)N2CCC(C(=O)N3CCCCCC3)CC2)c1C = NOT MET
6. COc1ccccc1-c1nnc(-c2ccc(C)c(S(=O)(=O)N(C)C)c2)o1 = MET
7. COC1CCC12CCN(C(=O)c1ccc(Cc3c(C)n[nH]c3C)o1)CC2 (centres undefined) = NOT MET
8. CCCNC(=O)C1CCN(c2ccc(SCC(=O)Nc3ccc(C)c(F)c3)nn2)CC1 = NOT MET
9. O=C(NC1CCN(c2cc(-c3ccc(F)cc3)[nH]n2)C1)c1cccc(Cl)c1 (centres undefined) = NOT MET
10. O=C(CN1C(=O)COc2ccc(C(=O)N3CCCC3)cc21)N1CCN(c2ccccn2)CC1 = NOT MET

q: Tell me whether RP-LC retention time is at least 800 s here: CCCn1cc(S(=O)(=O)Nc2ccc(OC)cc2)c2cccnc21
a: MET

====

# test-method-notes: gradient 5% acetonitrile 3 min, to 50% in 2 min, to 85% in 15 min, held 3 min, 100 µL/min
# assay-conditions: column: Zorbax Extend-C18 2.1 x 50 mm; eluents: water / acetonitrile, 0.1% formic acid
measure: RP-LC retention time (s)
Numeric only. Scale: s

1. Cc1noc(C)c1CC(=O)NCc1cc(-c2ccc3c(c2)OCO3)on1 = 689
2. Cc1ccccc1Cn1nc2ccc(S(=O)(=O)N3CCCC3)cn2c1=O = 891
3. COc1ccc(CNC(=O)CN2C(=O)NC3(CCCCC3)C2=O)cc1 = 719
4. CCC(=O)NCc1nc2c(n1C)CN(S(=O)(=O)c1cc(F)ccc1F)CC2 = 557
5. COc1ccc2c(c1)C1(CCN(C(=O)Nc3ccccc3)C1)C(=O)N2 (stereo not given) = 694
6. CCCC(=O)Nc1nc(-c2ccc3c(c2)N(C)C(=O)C(C)O3)cs1 (stereo not given) = 831
7. CCN(CC)CCNC(=O)C1CCN(C2=NS(=O)(=O)C(c3ccc(Cl)cc3)=C2C)CC1 = 658
8. CCCN1CCN(CCCNC(=O)c2ccc3c(c2)N(C)C(=O)C2CCCCN32)CC1 (stereo not given) = 597
9. O=C(NCCCN1CCOCC1)c1ccc2ccnc(N3CCN(c4ccccc4)CC3)c2c1 = 586
10. COC(=O)C1=CN(c2ccc(F)cc2)c2cc(Br)ccc2S1(=O)=O = 963

q: Fill blank: measured RP-LC retention time of the compound Cc1ccc(CNC(=O)C2(C)Cn3nc(C(=O)N4CCOCC4)cc3C(=O)N2C)cc1 (stereo not given) is ____.
a: 662

q: Fill blank: measured RP-LC retention time of the compound Cc1noc(C)c1C1CCCN1C(=O)c1cnn2c(C(F)(F)F)cc(-c3ccco3)nc12 (stereo not given) is ____.
a: 875

Ref: the METLIN SMRT retention time set (Domingo-Almenara et al. 2019)
